This collection of values is drawn from paper PMC6274483.

Tested on: HBE cells
Assay: CCK-8 cell viability, HBE normal bronchial cells
Assay type: cell-based
Conditions: HBE normal human bronchial cell line, read-out: Cellular Antiproliferative Activity (IC50, μM) HBE
measured-parameter: IC50

C=CC(=O)Nc1cc(Nc2nccc(-c3cn(C)c4ccccc34)n2)c(OC)cc1N(C)CCN(C)C ... 8.39 µM
C=CC(=O)Nc1cccc(Nc2nc(Nc3ccc(N4CCN(C(C)=O)CC4)cc3OC)ncc2C(F)(F)F)c1 ... > 40 µM

Turning now to a further compound:
Data request: Query: IC50; subject: `C=CC(=O)Nc1cccc(Nc2nc(Nc3ccc(CN4CCOCC4)cc3)ncc2Cl)c1`
Data returned: > 40 µM

----------
Biological target: wild-type EGFR (Homo sapiens, UniProt P00533)
Construct: purchased Promega Corporation V3831
Sequence (P00533 25-1210): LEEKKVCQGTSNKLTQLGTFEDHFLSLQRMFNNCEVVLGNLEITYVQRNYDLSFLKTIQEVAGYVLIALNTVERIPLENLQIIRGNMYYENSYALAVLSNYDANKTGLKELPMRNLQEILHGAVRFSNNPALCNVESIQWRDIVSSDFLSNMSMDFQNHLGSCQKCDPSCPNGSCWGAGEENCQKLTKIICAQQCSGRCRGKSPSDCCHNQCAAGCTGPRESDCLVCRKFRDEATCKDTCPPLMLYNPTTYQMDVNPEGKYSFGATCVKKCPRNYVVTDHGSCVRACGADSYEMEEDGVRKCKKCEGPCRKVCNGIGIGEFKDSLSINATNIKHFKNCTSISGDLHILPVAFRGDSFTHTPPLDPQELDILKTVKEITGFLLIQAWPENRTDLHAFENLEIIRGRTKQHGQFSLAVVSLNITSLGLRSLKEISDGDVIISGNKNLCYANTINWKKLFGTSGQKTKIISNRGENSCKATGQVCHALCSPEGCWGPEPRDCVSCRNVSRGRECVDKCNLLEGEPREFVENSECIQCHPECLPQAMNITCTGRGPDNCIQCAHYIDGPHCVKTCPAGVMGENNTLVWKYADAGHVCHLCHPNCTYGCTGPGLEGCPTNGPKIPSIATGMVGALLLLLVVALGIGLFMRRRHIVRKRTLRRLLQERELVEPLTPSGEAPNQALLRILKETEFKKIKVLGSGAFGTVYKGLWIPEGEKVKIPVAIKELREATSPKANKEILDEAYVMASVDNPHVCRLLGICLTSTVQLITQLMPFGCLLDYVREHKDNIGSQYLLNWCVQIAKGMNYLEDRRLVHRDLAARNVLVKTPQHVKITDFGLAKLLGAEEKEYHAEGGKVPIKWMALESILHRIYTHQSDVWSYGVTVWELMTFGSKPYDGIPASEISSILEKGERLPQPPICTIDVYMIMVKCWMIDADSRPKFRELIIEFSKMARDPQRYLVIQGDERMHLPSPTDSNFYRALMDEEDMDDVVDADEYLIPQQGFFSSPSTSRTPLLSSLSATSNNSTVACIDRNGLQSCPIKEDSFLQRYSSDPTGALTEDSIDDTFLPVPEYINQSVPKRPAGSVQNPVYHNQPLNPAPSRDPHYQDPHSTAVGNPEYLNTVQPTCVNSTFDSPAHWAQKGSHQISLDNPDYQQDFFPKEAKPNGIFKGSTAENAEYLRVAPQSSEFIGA
Assay: EGFR kinase enzymatic assay (ADP-Glo), wild-type
Format: biochemical
Conditions: read-out: EGFR (IC50, nM) WT
measured-parameter: IC50

Data request: wild-type EGFR (Homo sapiens, UniProt P00533) / IC50 / `C=CC(=O)Nc1cccc(Nc2nc(Nc3ccc(CN4CCOCC4)cc3)ncc2Cl)c1` : value?
Data returned: 449 nM

----------
Listed here: items and their measured IC50.
Test system: H1975 cells
Assay: CCK-8 cell viability, H1975
Format: cell-based
Conditions: Homo sapiens, NCI-H1975, H1975 (EGFR T790M), read-out: Cellular Antiproliferative Activity (IC50, μM) H1975
Please state the figure in µM; there is no need to write the unit.

C=CC(=O)Nc1cc(Nc2nccc(-c3cn(C)c4ccccc34)n2)c(OC)cc1N(C)CCN(C)C ... 0.087
C=CC(=O)Nc1cccc(Nc2nc(Nc3ccc(CN4CCOCC4)cc3)ncc2Cl)c1 ... 0.037

Turning now to a further molecule:
Data request: Query: IC50; subject: `C=CC(=O)Nc1cccc(Nc2nc(Nc3ccc(N4CCN(C(C)=O)CC4)cc3OC)ncc2C(F)(F)F)c1`
Data returned: 0.137

----------
Biological target: EGFR L858R/T790M (Homo sapiens, UniProt P00533, L858R/T790M)
Construct: purchased Promega Corporation V5324
Sequence (P00533 25-1210 T790M/L858R): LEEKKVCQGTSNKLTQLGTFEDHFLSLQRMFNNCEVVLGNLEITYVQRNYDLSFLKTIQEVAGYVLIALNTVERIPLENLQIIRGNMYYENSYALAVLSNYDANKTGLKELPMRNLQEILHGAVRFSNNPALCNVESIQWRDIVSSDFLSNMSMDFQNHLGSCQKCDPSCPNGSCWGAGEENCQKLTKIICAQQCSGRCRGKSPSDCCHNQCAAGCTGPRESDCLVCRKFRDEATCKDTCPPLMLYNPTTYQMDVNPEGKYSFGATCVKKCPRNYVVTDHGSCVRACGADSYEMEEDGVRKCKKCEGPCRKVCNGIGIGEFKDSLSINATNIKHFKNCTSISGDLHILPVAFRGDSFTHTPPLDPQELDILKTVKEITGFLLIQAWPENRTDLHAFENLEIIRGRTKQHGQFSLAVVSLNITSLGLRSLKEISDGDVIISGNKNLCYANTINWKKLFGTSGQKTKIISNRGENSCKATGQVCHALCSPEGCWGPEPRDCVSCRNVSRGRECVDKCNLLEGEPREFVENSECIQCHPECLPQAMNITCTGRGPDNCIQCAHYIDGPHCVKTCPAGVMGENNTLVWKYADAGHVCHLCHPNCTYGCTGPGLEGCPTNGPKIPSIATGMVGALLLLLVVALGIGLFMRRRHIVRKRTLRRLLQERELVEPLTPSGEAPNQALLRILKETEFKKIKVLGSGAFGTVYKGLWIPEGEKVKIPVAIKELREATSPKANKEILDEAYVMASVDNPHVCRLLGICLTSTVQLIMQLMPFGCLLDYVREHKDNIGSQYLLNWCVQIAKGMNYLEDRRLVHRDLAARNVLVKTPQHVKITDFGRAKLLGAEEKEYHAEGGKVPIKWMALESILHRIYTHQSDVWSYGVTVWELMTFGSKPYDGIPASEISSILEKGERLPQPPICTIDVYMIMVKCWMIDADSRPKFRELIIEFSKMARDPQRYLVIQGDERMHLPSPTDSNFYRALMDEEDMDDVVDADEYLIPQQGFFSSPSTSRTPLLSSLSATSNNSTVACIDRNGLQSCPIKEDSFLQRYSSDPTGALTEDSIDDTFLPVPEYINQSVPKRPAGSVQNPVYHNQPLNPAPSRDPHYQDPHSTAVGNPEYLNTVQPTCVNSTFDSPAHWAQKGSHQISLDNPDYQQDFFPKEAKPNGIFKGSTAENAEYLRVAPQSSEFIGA
Assay: EGFR kinase enzymatic assay (ADP-Glo), L858R/T790M mutant
Assay type: biochemical
Settings: EGFR L858R/T790M, ADP-Glo kinase assay
measured-parameter: IC50 (nM)
Please state the figure in nM; there is no need to write the unit.

Data request: Query: IC50; subject: `C=CC(=O)Nc1cccc(Nc2nc(Nc3ccc(CN4CCOCC4)cc3)ncc2Cl)c1`
Data returned: 0.71
